Data provenance is patent US12533348B2.

- protocol-text: Combination study: plasma concentrations of Fpn127 and DFX (LC-MS/MS)
- Format: in vivo, mouse
- cond: both sexes, Hbb^th3/+ (B6; 129P—b1tm1Unc-b2tm1Unc/J), mouse, oral, 30 mg/kg; th3/+ mice, all animals; plasma collected 1 hour after dosing of DFX on day 23; LC-MS/MS; read-out: Plasma exposure of DFX at the end of the study (mean)
measured-metric: concentration at 1 h (ng/mL)
Please reply with the bare figure in ng/mL and do not write the unit itself.

INPUT: Query (molecule): O=C(O)c1ccc(-n2nc(-c3ccccc3O)nc2-c2ccccc2O)cc1 [DFX, deferasirox, reference compound] ; field requested: concentration at 1 h
OUTPUT: 15400
